src = ChEMBL document CHEMBL3091303

target: MAO-B (amine oxidase [flavin-containing] B) (Homo sapiens, UniProt P27338); experiment: Inhibition of human MAO-B at 10 uM relative to control
Sequence (P27338 whole entry): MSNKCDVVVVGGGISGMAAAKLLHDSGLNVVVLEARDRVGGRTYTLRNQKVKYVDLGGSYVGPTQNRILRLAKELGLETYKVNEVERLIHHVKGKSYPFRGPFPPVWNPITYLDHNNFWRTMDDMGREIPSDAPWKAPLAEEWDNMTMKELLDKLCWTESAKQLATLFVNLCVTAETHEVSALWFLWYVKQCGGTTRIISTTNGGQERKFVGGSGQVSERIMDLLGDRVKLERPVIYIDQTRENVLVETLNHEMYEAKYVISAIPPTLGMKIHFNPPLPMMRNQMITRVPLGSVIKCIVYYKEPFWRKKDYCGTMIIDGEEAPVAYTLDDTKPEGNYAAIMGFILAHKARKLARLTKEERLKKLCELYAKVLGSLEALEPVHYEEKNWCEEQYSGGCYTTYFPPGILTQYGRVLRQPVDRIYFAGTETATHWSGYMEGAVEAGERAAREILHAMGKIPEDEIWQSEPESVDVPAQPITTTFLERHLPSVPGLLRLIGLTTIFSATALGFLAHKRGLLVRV
Quick rule: inhibition at 10 µM of at least 30% means y, below that means n.

smiles_input	assigned_class
C#CCn1c(=O)c2c(nc3n2CCCN3CCc2ccccc2)n(C)c1=O	n
CCCn1c(=O)c2c(nc3n2CCCN3CC(=O)N2CCN(c3ccc(Cl)cc3)CC2)n(CCC)c1=O	y
C#CCn1c(=O)c2c(nc3n2CCCN3Cc2cccc(OC)c2)n(C)c1=O	y
C#CCn1c(=O)c2c(nc3n2CCCN3Cc2cccnc2)n(C)c1=O	n
C#CCn1c(=O)c2c(nc3n2CCCN3CC2CCCCC2)n(C)c1=O	y
CCCn1c(=O)c2c(nc3n2CCCN3CC(=O)N2CCN(Cc3ccccc3)CC2)n(CCC)c1=O	n

Let us examine a further case.
Is inhibition at 10 µM for CCn1c(=O)c2c(nc3n2CCCN3c2ccc(O)cc2)n(CC)c1=O at or above 30%? y
